- Assayed target: Gal(b1-3)GalNAc(a1-3)[Fuc(a1-2)]Gal(b1-4)GlcNAc
- Protocol description: glycan array binding signal (z-score within array); higher = stronger binding
- Experimental context: glycan notation: IUPAC condensed, linker removed
The full list was thinned out, with the strongest signals kept by preference.
Values of glycan array binding signal (z-score) greater than or equal to -0.3 map to t; values below map to f.

Here are 4 binders together with their reported answers.
{"Binder": "SRS2 (Toxoplasma gondii), O15695 (protein) MATRASLARQKTGAACLAVLTASPSVVAAKPWKRWVGVSVILASAFAVGVSAGPPYRYEPEKFTCRPKKGILSQWVSLLYQVQHNITFACEEATPVPTTLISEEHGLMVCAENMTPEECEANPAPLSAFLPGATKEWVTGDSVLTGLKISVPESQYPANAKSFRVGCRHNTKTGNTCMLTIHVEPRDPAVERQEARCSYTENSTLPKIFVTKDSNTMTLACGPHGAPMPESYTENYCSTPDTCDEKPFTSVIPGYLSKWFFGDPKSPLGARVRIPPEQIPSSPQINYFGCTGPTEGEGPKYNCTVPVPLGGGDPSEGSRPGGGSGGGKRGGGQGGGGSLAGFDFRQGSARHSLPSRMALSASALLAMTALAY", "Category label": "f"}
{"Binder": "Epa12 (Candida glabrata) (protein) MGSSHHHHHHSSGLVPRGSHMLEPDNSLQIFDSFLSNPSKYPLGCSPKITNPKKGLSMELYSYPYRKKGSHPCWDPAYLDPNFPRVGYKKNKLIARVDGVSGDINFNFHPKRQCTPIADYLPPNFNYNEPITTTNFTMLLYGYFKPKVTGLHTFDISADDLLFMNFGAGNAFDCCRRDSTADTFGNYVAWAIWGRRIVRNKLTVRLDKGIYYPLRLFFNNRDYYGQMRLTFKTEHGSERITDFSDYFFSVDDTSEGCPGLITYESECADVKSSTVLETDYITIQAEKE", "Category label": "t"}
{"Binder": "Epa13 (Candida glabrata) (protein) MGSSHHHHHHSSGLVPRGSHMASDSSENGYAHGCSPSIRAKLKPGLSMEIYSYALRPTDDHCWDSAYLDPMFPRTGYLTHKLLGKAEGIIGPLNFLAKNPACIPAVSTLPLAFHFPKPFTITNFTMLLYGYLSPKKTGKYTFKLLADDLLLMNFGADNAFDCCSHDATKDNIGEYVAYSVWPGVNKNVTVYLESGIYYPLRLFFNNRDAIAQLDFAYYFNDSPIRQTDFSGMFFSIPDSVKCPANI", "Category label": "f"}
{"Binder": "RBMC2 (Vibrio cholerae) (protein) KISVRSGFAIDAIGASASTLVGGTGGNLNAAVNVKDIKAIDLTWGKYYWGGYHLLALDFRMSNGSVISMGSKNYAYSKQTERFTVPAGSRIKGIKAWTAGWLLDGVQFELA", "Category label": "t"}

We next turn to a different binder, shown below.
Qu. Kindly determine if glycan array binding signal (z-score) recorded for FedF (Escherichia coli), Q47212 (protein) MRLKYILIIPLLLISLSVFASTLQVDKSVSYDWINSSASSAQVTGTLLGTGKTNTTQMPALYTWQHQIYNVNFIPSSSGTLTCQAGTILVWKNGRETQYALECRVSIHHSSGSINESQWGQQSQVGFGTACGNKKCRFTGFEISLRIPPNAQTYPLSSGDLKGSFSLTNKEVNWSASIYVPAIAKSYRLDTSITLPDTVNLKQNQATPVYYTFSAPSVSNTITGIPNQNDMPSSNVKLTIGPIQSKTTALYVQPDATGSWYDLSKSITMTVVKSSMLNFKGINAKPGNVTLSVPIVFEIQ is above or exactly -0.3.
Ans. t
